Measurement notes: Replicon Assay (luciferase, ET cell line)
Type: cell-based, HCV
Condition set: Hepatitis C virus; % inhibition of replication relative to no compound control, test concentration of 10 μM; ET cells, luciferase read 48-72 hours; read-out: % inhib at 10 uM
inhibition at 10 µM of 70% or higher: Yes. Under 70%: No.

# Compound, Class label
records = [
    ("O=C(Nc1cc(Oc2ccc3oc4c(c3c2)CCCC4)cc([N+](=O)[O-])c1)[C@@H]1CCCN1C(=O)OCc1ccccc1 [Compound 6032]", "No"),
    ("O=C1Cc2cc(-c3cccc(NC(=O)[C@@H]4CCCN4C(=O)OCc4ccccc4)c3)ccc2N1 [Compound 6083]", "Yes"),
    ("CNc1cccc(-c2cccc(NC(=O)[C@@H]3CCCN3C(=O)OCc3ccccc3)c2)c1 [Compound 6089]", "Yes"),
    ("CC(=O)c1ccc(-c2cccc(NC(=O)[C@@H]3CCCN3C(=O)OCc3ccccc3)c2)s1 [Compound 6048]", "No"),
    ("O=C(NC1CC1)c1cccc(-c2cccc(NC(=O)[C@@H]3CCCN3C(=O)OCc3ccccc3)c2)c1 [Compound 6310]", "Yes"),
    ("COc1cccc(OC)c1-c1cccc(NC(=O)[C@@H]2CCCN2C(=O)OCc2ccccc2)c1 (stereo in doubt) [Compound 6033]", "No"),
    ("O=C(Nc1ccc(-c2cccc(COc3ccccc3)c2)cc1)[C@@H]1CCCN1C(=O)OCc1ccccc1 [Compound 6021]", "No"),
    ("COc1cccc(-c2cccc(NC(=O)[C@@H]3CCCN3C(=O)OCc3ccccc3)c2)c1 [Compound 6008]", "Yes"),
    ("Cc1ccc2cc(-c3cccc(NC(=O)[C@@H]4CCCN4C(=O)OCc4ccccc4)c3)ccc2n1 [Compound 6085]", "No"),
    ("O=C(NC1CC1)c1csc(-c2cccc(NC(=O)[C@@H]3CCCN3C(=O)OCc3ccccc3)c2)n1 [Compound 6302]", "No"),
    ("O=C(NCc1ccc(-c2cccc(NC(=O)[C@@H]3CCCN3C(=O)OCc3ccccc3)c2)cc1)C1CC1 [Compound 6308]", "No"),
    ("O=C(Nc1cccc(-c2ccc3c(c2)OCO3)c1)[C@@H]1CCCN1C(=O)OCc1ccccc1 [Compound 6043]", "Yes"),
    ("O=C(Nc1cccc(Oc2ccccc2)c1)[C@@H]1CCCN1C(=O)OCc1ccccc1 [Compound 6034]", "No"),
]

----------
Measurement notes: Replicon Assay (luciferase, ET cell line)
Assay type: cell-based, HCV
Condition set: Hepatitis C virus; % inhibition of replication relative to no compound control, test concentration of 10 μM; ET cells, luciferase read 48-72 hours; read-out: % inhib at 10 uM
// false (0) strictly below 90% in inhibition at 10 µM; true (1) otherwise

# Compound, Class label
rows = [
    ("O=C(Nc1cccc(S(=O)(=O)c2ccccc2)c1)[C@@H]1CCCN1C(=O)OCc1ccccc1 [Compound 6013]", "false (0)"),
    ("COc1cccc(-c2ccc(NC(=O)[C@@H]3CCCN3C(=O)OCc3ccccc3)cc2)c1OC [Compound 6028]", "false (0)"),
    ("CC1=NN(c2ccccc2)C(=O)/C1=C\\c1ccc(NC(=O)[C@@H]2CCCN2C(=O)OCc2ccccc2)cc1 (stereo in doubt) [Compound 6005]", "false (0)"),
    ("NC(=O)Nc1cccc(-c2cccc(NC(=O)[C@@H]3CCCN3C(=O)OCc3ccccc3)c2)c1 [Compound 6093]", "true (1)"),
    ("COc1ccc(OC)c(-c2ccc(NC(=O)[C@@H]3CCCN3C(=O)OCc3ccccc3)cc2)c1 [Compound 6007]", "true (1)"),
    ("Cc1ccc(S(=O)(=O)c2ccc(Oc3cccc(NC(=O)[C@@H]4CCCN4C(=O)OCc4ccccc4)c3)cc2)cc1 (stereo in doubt) [Compound 6027]", "true (1)"),
    ("O=C(Nc1cccc(-c2cccc3[nH]ccc23)c1)[C@@H]1CCCN1C(=O)OCc1ccccc1 [Compound 6082]", "true (1)"),
    ("Cc1nc2cc(-c3cccc(NC(=O)[C@@H]4CCCN4C(=O)OCc4ccccc4)c3)ccc2s1 [Compound 6091]", "true (1)"),
    ("CC(=O)c1cccc(-c2cccc(NC(=O)[C@@H]3CCCN3C(=O)OCc3ccccc3)c2)c1 [Compound 6087]", "false (0)"),
    ("COc1cccc(-c2cccc(NC(=O)[C@@H]3CCCN3C(=O)OCc3ccccc3)c2)c1OC [Compound 6026]", "true (1)"),
    ("O=C(NCc1cccc(-c2cccc(NC(=O)[C@@H]3CCCN3C(=O)OCc3ccccc3)c2)c1)C1CC1 [Compound 6311]", "true (1)"),
    ("O=C(Nc1ccc(Cc2nc3cc4ccccc4cc3[nH]2)cc1)[C@@H]1CCCN1C(=O)OCc1ccccc1 [Compound 6020]", "true (1)"),
    ("O=C(Nc1cccc(Oc2c(F)c(F)c(F)c(F)c2F)c1)[C@@H]1CCCN1C(=O)OCc1ccccc1 [Compound 6012]", "false (0)"),
    ("Nc1cc(-c2cccc(NC(=O)[C@@H]3CCCN3C(=O)OCc3ccccc3)c2)cc(C(F)(F)F)c1 [Compound 6095]", "false (0)"),
    ("CN(C)c1ccc(-c2cccc(NC(=O)[C@@H]3CCCN3C(=O)OCc3ccccc3)c2)cc1 [Compound 6045]", "false (0)"),
    ("O=C(Nc1ccc(-c2cccc(-c3ccccc3)c2)cc1)[C@@H]1CCCN1C(=O)OCc1ccccc1 [Compound 6011]", "true (1)"),
    ("O=C(Nc1cccc(-c2cccc([N+](=O)[O-])c2)c1)[C@@H]1CCCN1C(=O)OCc1ccccc1 [Compound 6309]", "true (1)"),
    ("CC(=O)Nc1ccc(-c2cccc(NC(=O)[C@@H]3CCCN3C(=O)OCc3ccccc3)c2)cc1 [Compound 6056]", "false (0)"),
    ("O=C(Nc1c(Cl)cccc1Cl)c1ccc(NC(=O)[C@@H]2CCCN2C(=O)OCc2ccccc2)cc1 [Compound 6004]", "false (0)"),
    ("CN(C)c1cccc(-c2cccc(NC(=O)[C@@H]3CCCN3C(=O)OCc3ccccc3)c2)c1 [Compound 6096]", "false (0)"),
    ("CC(=O)Nc1cccc(-c2cccc(NC(=O)[C@@H]3CCCN3C(=O)OCc3ccccc3)c2)c1 [Compound 6057]", "false (0)"),
    ("COc1cccc(OC)c1-c1ccc(NC(=O)[C@@H]2CCCN2C(=O)OCc2ccccc2)cc1 [Compound 6036]", "false (0)"),
    ("Cc1c(N)cccc1-c1cccc(NC(=O)[C@@H]2CCCN2C(=O)OCc2ccccc2)c1 [Compound 6090]", "false (0)"),
    ("O=C(Nc1cccc(-c2cccs2)c1)[C@@H]1CCCN1C(=O)OCc1ccccc1 [Compound 6022]", "false (0)"),
    ("Cc1c(Br)cc2[nH]c(Cc3ccc(NC(=O)[C@@H]4CCCN4C(=O)OCc4ccccc4)cc3)nc2c1C (stereo in doubt) [Compound 6006]", "false (0)"),
    ("O=C(Nc1ccc(-c2ccc3[nH]ccc3c2)cc1)[C@@H]1CCCN1C(=O)OCc1ccccc1 [Compound 6009]", "false (0)"),
]

----------
Measurement notes: Replicon Assay (luciferase, ET cell line)
Type: cell-based, HCV
Condition set: Hepatitis C virus; % inhibition of replication relative to no compound control, test concentration of 10 μM; ET cells, luciferase read 48-72 hours; read-out: % inhib at 10 uM
Procedure: A cell line, ET (Huh-lucubineo-ET) was used for screening of compounds of the present invention for HCV RNA dependent RNA polymerase. […] Luciferase activity were measured 48-72 hours later by adding a lysis buffer and the substrate (Catalog number Glo-lysis buffer E2661 and Bright-Glo luciferase system E2620 Promega, Madison, Wis.). […] Under the same condition, cytotoxicity of the compounds was determined using cell proliferation reagent, WST-1 (Roche, Germany). […]
inhibition at 10 µM by entry:
Endpoint label: inhibition at 10 µM (%)

# Compound, Endpoint label, Uom, Experimental value
records = [
    ("O=C(Nc1ccc(NS(=O)(=O)c2ccccc2)cc1)[C@@H]1CCCN1C(=O)OCc1ccccc1 [Compound 6002]", "inhibition at 10 µM", "%", 2.69),
    ("O=C(Nc1cccc(-c2ccc3cc[nH]c3c2)c1)[C@@H]1CCCN1C(=O)OCc1ccccc1 [Compound 6097]", "inhibition at 10 µM", "%", 99.8),
    ("COc1ccc(-c2ccc(NC(=O)[C@@H]3CCCN3C(=O)OCc3ccccc3)cc2)cc1 [Compound 6019]", "inhibition at 10 µM", "%", 10.5),
    ("N#Cc1cccc(-c2cccc(NC(=O)[C@@H]3CCCN3C(=O)OCc3ccccc3)c2)c1 [Compound 6307]", "inhibition at 10 µM", "%", 32.3),
    ("CC1CCN(S(=O)(=O)c2ccc(NC(=O)[C@@H]3CCCN3C(=O)OCc3ccccc3)cc2)CC1 [Compound 6003]", "inhibition at 10 µM", "%", 1.21),
    ("COc1ccc(-c2cccc(NC(=O)[C@@H]3CCCN3C(=O)OCc3ccccc3)c2)cc1OC [Compound 6029]", "inhibition at 10 µM", "%", 3.08),
    ("CC(=O)c1ccc(-c2cccc(NC(=O)[C@@H]3CCCN3C(=O)OCc3ccccc3)c2)cc1 [Compound 6052]", "inhibition at 10 µM", "%", 48.3),
    ("O=C(Nc1cccc(-c2cccc(O)c2)c1)[C@@H]1CCCN1C(=O)OCc1ccccc1 [Compound 6092]", "inhibition at 10 µM", "%", 95.3),
]
